# Lookup of reported glycan array binding signal (z-score) keyed by entry
# assayedSystem: Neu5Ac(a2-6)Gal(b1-4)GlcNAc(b1-3)Gal(b1-4)GlcNAc(b1-2)Man(a1-3)[Neu5Ac(a2-6)Gal(b1-4)GlcNAc(b1-3)Gal(b1-4)GlcNAc(b1-2)Man(a1-6)]GalNAc
# assayNotes: glycan array binding signal (z-score within array); higher = stronger binding
# conditionSummary: glycan notation: IUPAC condensed, linker removed
The sample as a whole holds a higher share of the strongest signals than the screen did.
The response must contain the number and no unit.

Supply glycan array binding signal (z-score) value. Item: LICBM33A (Lactococcus lactis), Q9CE94 (protein) MKKLLTGLLVAAGLLSVSLLIKTDTVSAHGYVQSPPARGYQGQLDSQSLGWTAAFNIYGNVISNPQSLEAPKGFPECGPADGRIASANGGLGQIGDFVLDNQTSSRWKKTSISTGSNIFTWKYTAPHKTTKWHYYMTKTGWDQNAPLKHSELELIGTINHDGSPATNNLSHTINIPTDRSGYHIVLAVWDVADTSNAFYNVIDINVNNKNASSQVFGPFL
4.82

// Input: CD34 (Homo sapiens), P28906 (protein) MGSSHHHHHHSSGLVPRGSHMSTSLATSPTKPYTSSSPILSDIKAEIKCSGIREVKLTQGICLEQNKTSSCAEFKKDRGEGLARVLCGEEQADADAGAQVCSLLLAQSEVRPQCLLLVLANRTEISSKLQLMKKHQSDLKKLGILDFTEQDVASHQSYSQKT . Output its glycan array binding signal (z-score) only.
0.167

Quick one: give measured glycan array binding signal (z-score) for Sebin2 (Coprinopsis cinerea), A8PE78 (protein) MTTPFYAYCHNVQDDNTWRLGLVFANRSTADEWWRAISEATSSIPITKSITRVTPQYYTHDIRVWNMYNFFVDGNIKSISDKFRGRLFITLEYDRSGRGVSVFPPLHIVDHVSGNWYYIRSKTAPHLFWFYDETRNAIYASKEKRTRFKVSIRNPSPQTPKDAIMINSDDVVIHIKESLYVGVDSYLGHIIPTRAYRTFKFGELEGGAIAGIEVAENAEERCSSTFDGASLYFVGPDSSSPGEPWELV
-0.35
